B1: Osa-1-4 twister ribozyme (parent)
chain: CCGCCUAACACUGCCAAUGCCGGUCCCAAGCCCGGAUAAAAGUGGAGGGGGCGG

variants of: B1; experiment: self-cleavage, relative activity (ratio to wild type); higher = more cleavage; co-transcriptional
Readout Label: self-cleavage
Give only the figure.

Look up and state reported self-cleavage for C20U G30U
0.04

Look up and state reported self-cleavage for C26G C9A
0.02

Look up and state reported self-cleavage for `C32A`
0.15

Look up and state reported self-cleavage for A16G G51A
0.82

Look up and state reported self-cleavage for A28G U18A
0.34

Look up and state reported self-cleavage for U12C U24C
0.06

Look up and state reported self-cleavage for A41G G48U
0.05

Look up and state reported self-cleavage for C15G G54C
0.16

Look up and state reported self-cleavage for `A10C`
0.12

Look up and state reported self-cleavage for A39C G34A
0.63

Look up and state reported self-cleavage for C33A G44U
0.1

Look up and state reported self-cleavage for A40G C26A
0.05

Look up and state reported self-cleavage for A16G G22U
0.82

Look up and state reported self-cleavage for G13U G22U
0.02

Look up and state reported self-cleavage for A46U G48A
0.03

Look up and state reported self-cleavage for G19C U37G
0.24

Look up and state reported self-cleavage for A7U C15G
0.11

Look up and state reported self-cleavage for G30A G47U
0.02

Look up and state reported self-cleavage for A17C C15G
0.64

Look up and state reported self-cleavage for C9G G53A
0.48

Look up and state reported self-cleavage for G47A U12G
0.06

Look up and state reported self-cleavage for G19U U24C
0.07

Cited source: the RNAGym collection of RNA variant scans (doi:10.1002/anie.201605470)
